B1: SNAP91 (parent)
chain: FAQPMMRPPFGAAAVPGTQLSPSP

- Variants of: B1
- Experimental Protocol: protein stability index of a GFP-peptide fusion (GPS, HEK-293T) (PSI 1-6); higher = more stable;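 note: lentivirally expressed fusions sorted by FACS into six bins by GFP to DsRed ratio, PSI derived from sequencing read proportions per bin multiplied by bin number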
- Experimental Context: c terminus: a fixed tail appended
Could you label it 1 if measured protein stability index is 3 or higher, and 0 otherwise?

# Sequence String, Class
records = [
    ("FAQPMMRPPFGAAAVPGTQLSPSK [P24K]", 1),
    ("VAQPMMRPPFGAAAVPGTQLSPSP [F1V]", 1),
    ("FAQWMMRPPFGAAAVPGTQLSPSP [P4W]", 0),
    ("HAQPMMRPPFGAAAVPGTQLSPSP [F1H]", 1),
    ("FAQPMMRPPFGAAAVPGTQLCPSP [S21C]", 0),
    ("FAQLMMRPPFGAAAVPGTQLSPSP [P4L]", 0),
    ("FAQPMMRPPFGAAAVPGTQLSPRP [S23R]", 1),
    ("FAQPGMRPPFGAAAVPGTQLSPSP [M5G]", 0),
    ("FAQPMMRPPFGAAAVPGTQLDPSP [S21D]", 0),
    ("FAQPMMMPPFGAAAVPGTQLSPSP [R7M]", 0),
    ("FAQPMMRPPFGAAAVPGFQLSPSP [T18F]", 0),
    ("FAQPNMRPPFGAAAVPGTQLSPSP [M5N]", 1),
    ("FAQPMMRPPFGAAAVPGTQLPPSP [S21P]", 1),
    ("FAQPMMRPPFGAAAVPFTQLSPSP [G17F]", 0),
    ("FAQPMMRPPFSAAAVPGTQLSPSP [G11S]", 1),
]
